Ref: patent US20210122739A1

IC50 for assorted compounds
- SYSTEM_UNDER_TEST: NLRP3 (Homo sapiens)
- Sequence (Q96P20 whole entry): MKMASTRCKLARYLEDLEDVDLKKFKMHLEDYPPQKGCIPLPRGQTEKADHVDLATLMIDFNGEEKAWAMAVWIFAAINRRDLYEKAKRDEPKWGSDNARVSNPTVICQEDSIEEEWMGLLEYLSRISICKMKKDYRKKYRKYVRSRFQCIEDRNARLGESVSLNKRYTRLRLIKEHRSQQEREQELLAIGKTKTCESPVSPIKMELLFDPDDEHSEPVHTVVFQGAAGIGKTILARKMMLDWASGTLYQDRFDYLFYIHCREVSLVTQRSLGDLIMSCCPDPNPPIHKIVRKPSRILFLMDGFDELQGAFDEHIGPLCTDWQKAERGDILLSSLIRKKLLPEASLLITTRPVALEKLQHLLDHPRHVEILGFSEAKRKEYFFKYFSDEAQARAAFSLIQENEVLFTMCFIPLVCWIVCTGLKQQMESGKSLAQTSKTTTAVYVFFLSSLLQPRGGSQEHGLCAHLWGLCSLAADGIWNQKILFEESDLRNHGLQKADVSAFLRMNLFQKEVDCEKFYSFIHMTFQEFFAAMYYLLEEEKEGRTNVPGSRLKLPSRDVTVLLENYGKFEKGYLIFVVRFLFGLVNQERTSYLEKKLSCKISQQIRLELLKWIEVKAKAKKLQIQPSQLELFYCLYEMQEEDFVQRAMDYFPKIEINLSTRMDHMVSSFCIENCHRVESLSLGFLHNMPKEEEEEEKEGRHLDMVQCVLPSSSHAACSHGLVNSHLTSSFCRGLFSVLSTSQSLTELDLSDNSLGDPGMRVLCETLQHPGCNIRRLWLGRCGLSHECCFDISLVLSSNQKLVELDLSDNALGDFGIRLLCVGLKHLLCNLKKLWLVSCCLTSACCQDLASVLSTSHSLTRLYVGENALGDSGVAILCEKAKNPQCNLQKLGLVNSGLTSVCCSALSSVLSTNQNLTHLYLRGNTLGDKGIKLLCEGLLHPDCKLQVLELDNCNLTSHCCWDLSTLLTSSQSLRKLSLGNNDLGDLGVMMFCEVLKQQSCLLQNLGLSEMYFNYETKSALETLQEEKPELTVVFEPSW
- ASSAY_TEXT: Human whole blood IL1β release assay
- Assay type: cell-based
- Set-up: Plate out 80 μl of whole blood containing 1 μg/ml of LPS; from tissue; host or cells: human whole blood from healthy donors, LPS-primed, nigericin-stimulated
- APPLIED_CONDITIONS: 1 μg/ml LPS, nigericin 10 μM, IL-1β by AlphaLisa, read-out: HWB IC50

Some compounds with known IC50 results, for comparison:
CC(C)c1cccc(C(C)C)c1NC(=O)NS(=O)(=O)c1cc(C(=O)N(C)C(C)C)n(C)n1: 0.4 to 0.8 µM
CC(C)N(C)C(=O)c1cc(S(=O)(=O)NC(=O)Nc2c3c(cc4c2CCC4)CCC3)nn1C: 1.6 to 3.2 µM
CC(C)c1cc(F)cc(C(C)C)c1NC(=O)NS(=O)(=O)c1cc(C(=O)N(C)C)n(C)n1: < 0.4 µM
CC(C)c1cc(F)cc(C(C)C)c1NC(=O)NS(=O)(=O)c1cc(C(=O)N(C)C(C)C)n(C)n1: 0.4 to 0.8 µM

Challenge: I am curious: what IC50 value has been reported for CN(C)C(=O)Cn1ccc(S(=O)(=O)NC(=O)Nc2c3c(cc4c2CCC4)CCC3)n1 ?
Response given: 3.2 to 10 µM

Challenge: Let us now turn to CC(C)c1cc(F)cc(C2CCOCC2)c1NC(=O)NS(=O)(=O)c1cc(C(=O)N(C)C)n(C)n1
Response given: 0.4 to 0.8 µM

Challenge: Try this compound too: CC(C)c1ccc(C(C)C)c(NC(=O)NS(=O)(=O)c2cc(C(=O)N(C)C)n(C)n2)c1
Response given: 3.2 to 10 µM

Challenge: Also check CC(C)c1cc(F)cc(-c2cnn(C)c2)c1NC(=O)NS(=O)(=O)c1cc(C(=O)N(C)C)n(C)n1
Response given: < 0.4 µM

Challenge: Would you kindly repeat that for CC(C)c1cccc(C(C)C)c1NC(=O)NS(=O)(=O)c1cc(C(=O)N2CCC2)n(C)n1 ?
Response given: < 0.4 µM

Challenge: Try this compound next: CN(C)C(=O)C(C)(C)n1ccc(S(=O)(=O)NC(=O)Nc2c3c(cc4c2CCC4)CCC3)n1
Response given: 0.8 to 1.6 µM
